read-out: Alpha-fetoprotein (AFP) gene, AFP (gene 174); assay: LTEA_HepaRG_AFP: Life Technologies and Expression Analysis (LTEA) Assay for Alpha-fetoprotein (AFP) gene using HepaRG (AID 2283472); conditions: mRNA level, 48 h; actives raise or lower the signal
The source made the active and inactive calls. Rule for the calls: active = hit-call score of the fitted dose curve at least 0.9, where 1 is the maximum; inactive = score below 0.9.
Your reply should match one of these outcome classes. active, inactive

These solved cases illustrate the format of a correct answer.
CCCCOC(=O)CCCCCCCCC(=O)OCCCC | inactive
Cc1ccc(N(C)C)cc1 | inactive
CC(=O)C(C)=CC1C(C)=CCCC1(C)C (configuration not stated) | inactive
NS(=O)(=O)c1cc2c(cc1Cl)NCNS2(=O)=O | inactive
CNC(=O)[C@H]1O[C@@H](n2cnc3c(NCc4cc(Cl)ccc4OCc4cc(C)no4)ncnc32)[C@H](O)[C@@H]1N | inactive
C[Si]1(C)O[Si](C)(C)O[Si](C)(C)O[Si](C)(C)O1 | inactive
O=C(N[C@@H](Cc1ccccc1)[C@@H](O)C(=O)N1C[C@@H](O)[C@@H](O)C1)c1cc2cc(Cl)ccc2[nH]1 | inactive
CN1CCCC1=O | inactive
NC(=O)Cn1c(=O)cc(CCN2CCN(c3nccc4sccc34)CC2)c2ccc(F)cc21 | active
CC(C)(C)c1cc(O)c(C(C)(C)C)cc1O | active

QUERY: What classification did NCC1(Cc2noc(=O)[nH]2)CCCCC1 end up with in this test?
RESULT: inactive

QUERY: Same question for CC(=O)OCCOCCOCCOC(C)=O please.
RESULT: inactive

---

target: human Adrenergic, Alpha 2c Receptor (Adra2C), ADRA2C (gene 152) (UniProt P18825); assay: NVS_GPCR_hAdra2C: NovaScreen (NVS) G Protein-Coupled Receptor Assay for human Adrenergic, Alpha 2c Receptor (Adra2C) (AID 2283259)
Sequence (P18825 whole entry, looked up): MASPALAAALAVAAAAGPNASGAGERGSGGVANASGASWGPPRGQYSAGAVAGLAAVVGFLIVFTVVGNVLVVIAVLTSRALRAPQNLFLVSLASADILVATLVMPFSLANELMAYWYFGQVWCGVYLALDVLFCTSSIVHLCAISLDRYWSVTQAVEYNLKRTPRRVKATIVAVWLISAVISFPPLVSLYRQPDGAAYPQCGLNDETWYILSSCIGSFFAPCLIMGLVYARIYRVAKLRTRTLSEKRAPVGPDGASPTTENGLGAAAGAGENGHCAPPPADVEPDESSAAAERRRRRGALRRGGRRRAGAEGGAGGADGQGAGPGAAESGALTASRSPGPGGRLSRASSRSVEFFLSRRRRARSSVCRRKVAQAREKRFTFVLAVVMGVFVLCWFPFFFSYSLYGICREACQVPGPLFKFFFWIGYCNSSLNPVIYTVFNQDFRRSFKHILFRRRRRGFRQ
Results filed as inconclusive are left out. Activity calls are given as the source filed them. Rule for the calls: active = hit-call score of the fitted dose curve at least 0.9, where 1 is the maximum; inconclusive = response in the unintended direction; inactive = score below 0.9.
Your answer must be one of the following: active, inactive

Here's what some known entries look like.
CC1(C)CC(N=C=O)CC(C)(CN=C=O)C1 (centres undefined) | inactive
CCOC(=O)CCC(=O)OCC | inactive
Oc1ccc2c(c1)OC[C@@H](N1CCC(O)(c3ccc(F)cc3)CC1)[C@H]2O | inactive

We now examine a further compound.
QUERY: Hi, do you know how CCCCC(CC)COC(=O)CC(C(=O)OCC(CC)CCCC)S(=O)(=O)O (centres undefined) came out in this test?
RESULT: active

---

target: Androgen Receptor/SRC-1 Co-activator, AR (gene 367) (UniProt P10275); assay: OT_AR_ARSRC1_0480: Odyssey Thera (OT) 8-hour HEK293T Protein-Complementation Assay for Androgen Receptor/SRC-1 Co-activator (AID 2283354);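 note: hits raise the complementation signal above DMSO so AC50 marks enhancers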
Sequence (P10275 whole entry, looked up): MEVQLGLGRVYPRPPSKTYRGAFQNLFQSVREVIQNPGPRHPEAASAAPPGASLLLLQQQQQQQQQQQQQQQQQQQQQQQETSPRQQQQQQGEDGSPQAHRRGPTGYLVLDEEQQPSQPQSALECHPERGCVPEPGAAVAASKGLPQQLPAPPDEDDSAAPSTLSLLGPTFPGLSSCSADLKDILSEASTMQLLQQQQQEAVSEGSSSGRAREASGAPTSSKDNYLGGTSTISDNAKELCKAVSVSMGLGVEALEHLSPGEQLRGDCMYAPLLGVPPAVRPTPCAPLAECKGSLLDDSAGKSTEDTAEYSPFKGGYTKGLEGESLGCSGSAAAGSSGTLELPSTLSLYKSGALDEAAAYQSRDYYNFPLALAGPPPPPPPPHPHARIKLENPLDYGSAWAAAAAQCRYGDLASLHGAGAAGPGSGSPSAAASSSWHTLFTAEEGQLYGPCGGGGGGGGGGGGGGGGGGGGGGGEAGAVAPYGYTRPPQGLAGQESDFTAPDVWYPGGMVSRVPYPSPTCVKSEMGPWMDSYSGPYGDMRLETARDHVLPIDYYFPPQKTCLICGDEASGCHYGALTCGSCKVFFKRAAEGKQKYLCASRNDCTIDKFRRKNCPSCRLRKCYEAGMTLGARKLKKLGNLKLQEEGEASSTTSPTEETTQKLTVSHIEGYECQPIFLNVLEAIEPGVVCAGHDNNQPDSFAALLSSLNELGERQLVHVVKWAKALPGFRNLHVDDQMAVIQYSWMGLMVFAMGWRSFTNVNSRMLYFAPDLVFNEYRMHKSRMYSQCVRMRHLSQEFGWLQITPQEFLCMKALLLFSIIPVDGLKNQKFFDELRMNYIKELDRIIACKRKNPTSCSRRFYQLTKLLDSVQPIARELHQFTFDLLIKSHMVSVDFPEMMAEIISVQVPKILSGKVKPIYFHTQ
Results filed as inconclusive are left out. Activity calls are given as the source filed them. How the source made its calls: active means hit-call score of the fitted dose curve at least 0.9, where 1 is the maximum; inconclusive means response in the unintended direction; inactive means score below 0.9.
experimental-endpoint: AC50

Answered cases to consult:
COc1ccc2c(c1)c(CC(=O)O)c(C)n2C(=O)c1ccc(Cl)cc1 | inactive
Cc1ccccc1Cl | inactive
CNC(=O)[C@H]1O[C@@H](n2cnc3c(NCc4cc(Cl)ccc4OCc4cc(C)no4)ncnc32)[C@H](O)[C@@H]1N | inactive
Cc1cc(NC(=O)C(=O)O)cc(C)c1Oc1ccc(O)c2c1CCC2 | inactive
COc1ccc(S(=O)(=O)N2C(=O)[C@@](c3ccccc3OC)(N3C[C@H](O)C[C@H]3C(=O)N(C)C)c3cc(Cl)ccc32)c(OC)c1 | 27.2 µM (active)

Now take the following compound into account.
QUERY: Name the recorded AC50 for O=C(O)Cc1ccccc1Nc1c(Cl)cccc1Cl .
RESULT: inactive
